Attribute: pKi
- Test System: Alpha-2A adrenergic receptor (Homo sapiens)
- Sequence (P08913 whole entry): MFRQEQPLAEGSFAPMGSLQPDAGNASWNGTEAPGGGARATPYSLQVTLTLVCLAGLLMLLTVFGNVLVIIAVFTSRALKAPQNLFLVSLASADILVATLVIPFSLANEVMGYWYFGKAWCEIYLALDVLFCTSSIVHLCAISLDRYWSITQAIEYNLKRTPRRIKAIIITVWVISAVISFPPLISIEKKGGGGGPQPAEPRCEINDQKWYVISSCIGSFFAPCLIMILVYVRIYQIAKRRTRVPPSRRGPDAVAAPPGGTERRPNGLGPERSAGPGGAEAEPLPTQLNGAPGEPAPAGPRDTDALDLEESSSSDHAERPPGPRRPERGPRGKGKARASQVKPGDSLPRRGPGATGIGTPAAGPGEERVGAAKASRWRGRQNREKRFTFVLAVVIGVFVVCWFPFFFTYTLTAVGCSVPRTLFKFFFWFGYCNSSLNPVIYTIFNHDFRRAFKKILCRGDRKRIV
pKi: −log10 of the molar value.

| Molecule | pKi |
| --- | --- |
| Cc1cc(C(C)(C)C)cc(C)c1CC1=NCCN1 | 7.82 |
| c1ccc2ccccc2c1 | 8.34 |
| CCn1ccnc1CC1COc2ccccc2O1 (stereo not given) | 6.50 |
| c1cc2c(c(NC3=NCCN3)c1)CCCC2 | 7.50 |
| c1ccc2c(CC3=NCCN3)cccc2c1 | 7.68 |
| C1COC(NC(C2CC2)C2CC2)=N1 | 5.80 |
| C=CCN(C1=NCCN1)c1c(Cl)cccc1Cl | 5.22 |
| Cc1cccc(C)c1N=C1NCCCS1 | 5.24 |
| CCc1cccc(CC)c1NC1=NCCN1 | 6.24 |
| CC(N)C(O)c1ccc(O)c(O)c1 (stereo not drawn) [alpha-Methyl-(+/-)norepinephrine,(+/-)] | 5.44 |
